biological target: plasma purified human complement protein C3 (human) (UniProt P01024); assay: cell-based or functional assay
Sequence (P01024 23-667, chain 1 of 2): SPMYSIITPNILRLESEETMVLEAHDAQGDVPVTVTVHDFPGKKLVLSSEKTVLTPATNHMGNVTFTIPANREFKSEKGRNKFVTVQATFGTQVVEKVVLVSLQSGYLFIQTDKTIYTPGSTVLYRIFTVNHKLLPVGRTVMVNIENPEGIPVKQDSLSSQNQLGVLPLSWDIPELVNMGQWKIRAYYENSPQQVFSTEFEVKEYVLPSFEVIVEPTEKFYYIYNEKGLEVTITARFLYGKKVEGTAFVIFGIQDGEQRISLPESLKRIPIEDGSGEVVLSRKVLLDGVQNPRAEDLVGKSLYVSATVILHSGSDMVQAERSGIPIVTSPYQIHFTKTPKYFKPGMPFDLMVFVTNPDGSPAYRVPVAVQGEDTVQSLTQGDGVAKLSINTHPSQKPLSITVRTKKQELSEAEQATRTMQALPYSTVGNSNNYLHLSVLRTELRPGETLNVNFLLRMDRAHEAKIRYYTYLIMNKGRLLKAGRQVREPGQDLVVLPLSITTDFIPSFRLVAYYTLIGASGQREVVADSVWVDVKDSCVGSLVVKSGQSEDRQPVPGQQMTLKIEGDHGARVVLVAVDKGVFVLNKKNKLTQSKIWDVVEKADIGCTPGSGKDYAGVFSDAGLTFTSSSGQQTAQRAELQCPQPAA
Sequence (P01024 672-1663, chain 2 of 2): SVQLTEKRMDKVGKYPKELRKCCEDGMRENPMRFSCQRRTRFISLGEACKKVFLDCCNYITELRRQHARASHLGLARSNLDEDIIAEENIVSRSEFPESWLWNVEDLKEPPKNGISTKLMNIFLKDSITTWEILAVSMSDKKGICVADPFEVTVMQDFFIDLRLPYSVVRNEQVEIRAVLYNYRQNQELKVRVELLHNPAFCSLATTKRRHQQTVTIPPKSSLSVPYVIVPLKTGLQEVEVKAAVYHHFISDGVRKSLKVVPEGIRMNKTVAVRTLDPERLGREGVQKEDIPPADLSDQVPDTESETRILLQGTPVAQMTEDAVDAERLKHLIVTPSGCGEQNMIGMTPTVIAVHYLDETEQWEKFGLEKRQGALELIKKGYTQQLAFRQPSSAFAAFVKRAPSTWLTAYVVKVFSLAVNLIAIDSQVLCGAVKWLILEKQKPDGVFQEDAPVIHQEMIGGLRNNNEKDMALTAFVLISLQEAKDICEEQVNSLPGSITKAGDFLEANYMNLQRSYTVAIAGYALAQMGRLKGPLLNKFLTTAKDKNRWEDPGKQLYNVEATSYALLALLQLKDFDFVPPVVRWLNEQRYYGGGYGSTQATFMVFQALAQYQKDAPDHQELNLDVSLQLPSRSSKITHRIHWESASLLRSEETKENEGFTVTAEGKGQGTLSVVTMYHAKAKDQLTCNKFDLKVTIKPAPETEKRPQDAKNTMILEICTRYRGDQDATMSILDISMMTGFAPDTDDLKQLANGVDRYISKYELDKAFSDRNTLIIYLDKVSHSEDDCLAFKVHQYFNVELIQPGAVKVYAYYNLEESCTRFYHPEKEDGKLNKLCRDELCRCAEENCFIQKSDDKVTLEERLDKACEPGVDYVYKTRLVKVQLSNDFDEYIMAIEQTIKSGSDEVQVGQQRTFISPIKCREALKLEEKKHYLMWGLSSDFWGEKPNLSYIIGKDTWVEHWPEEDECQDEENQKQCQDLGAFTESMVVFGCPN
Reported EC50 hC3 cleavage is given for each of the following binders.
readout-label: EC50 hC3 cleavage

| binder | result |
| --- | --- |
| MTSP-1 protease domain Q38H/I41S/D60bT/F60eS/Y60gW/D96Y/ins97aV/F97E/T98G/F99L/C122S/G151N/Q175L/Q192D (enzyme) VVGGTDADEGEWPWQVSLHALGHGHSCGASLISPNWLVSAAHCYIDTRGSRWSDPTQWTAFLGLHDQSQRSAPGVQERRLKRIISHPFFNYEVGLDYDIALLELEKPAEYSSMVRPISLPDASHVFPAGKAIWVTGWGHTQYGGTNALILQKGEIRVINQTTCENLLPQLITPRMMCVGFLSGGVDSCDGDSGGPLSSVEADGRIFQAGVVSWGDGCAQRNKPGVYTRLPLFRDWIKENTGV | 4.13 nM |
| MTSP-1 protease domain I41D/F99L/C122S/G151N/Q192T/D217E (enzyme) VVGGTDADEGEWPWQVSLHALGQGHDCGASLISPNWLVSAAHCYIDDRGFRYSDPTQWTAFLGLHDQSQRSAPGVQERRLKRIISHPFFNDFTLDYDIALLELEKPAEYSSMVRPISLPDASHVFPAGKAIWVTGWGHTQYGGTNALILQKGEIRVINQTTCENLLPQQITPRMMCVGFLSGGVDSCTGDSGGPLSSVEADGRIFQAGVVSWGEGCAQRNKPGVYTRLPLFRDWIKENTGV | 22 nM |
| MTSP-1 protease domain F97R/F99L/C122S/G151Q/Q175R/Q192V/D217L (enzyme) VVGGTDADEGEWPWQVSLHALGQGHICGASLISPNWLVSAAHCYIDDRGFRYSDPTQWTAFLGLHDQSQRSAPGVQERRLKRIISHPFFNDRTLDYDIALLELEKPAEYSSMVRPISLPDASHVFPAGKAIWVTGWGHTQYGGTQALILQKGEIRVINQTTCENLLPQRITPRMMCVGFLSGGVDSCVGDSGGPLSSVEADGRIFQAGVVSWGLGCAQRNKPGVYTRLPLFRDWIKENTGV | 137 nM |

Numbers sourced from patent US20240018502A1.
